tested on: SEM cells; experiment: cell viability relative to DMSO control; higher = less cytotoxic; conditions: HPLM + 10% dialyzed FBS; 48 h; 46.1 µM
What cell viability was measured for each of the following?
Express it in %; write the number only.

Would you kindly share the measured cell viability for CC[C@H](CC#N)OC(=O)N[C@@H](C)c1cccc(NC(=O)Nc2ccc(-c3cnco3)c(OC)c2)c1 ?
31.6

Request: Cc1cn2c(-c3cn[nH]c3)cnc2c(Nc2ccc(C(=O)N3CCNCC3)cc2F)n1
17

Request: Cc1cc(OCCCc2c(C(=O)O)n(Cc3cccnc3)c3c(-c4c(COc5ccc(N6CCN([S+](C)(=O)[O-])CC6)cc5)nn(C)c4C)cccc23)cc(C)c1Cl
62.2

Request: C/C=C1\NC(=O)[C@H]2CSSCC/C=C\[C@H](CC(=O)N[C@H](C(C)C)C(=O)N2)OC(=O)[C@H](C(C)C)NC1=O
4.21

Request: CC1(C)CC(=O)c2c(C(F)(F)F)nn(-c3ccc(C(N)=O)c(NC4CCC(O)CC4)c3)c2C1 (configuration not stated)
77.6

Request: O=C(NCC[S+](=O)([O-])c1ccc(C(F)(F)F)cn1)c1ccc(Cl)cc1
107

Request: COC[C@H]1OC(=O)C2=COC3=C2[C@@]1(C)\C4=C(C5CCC(=O)[C@@]5(C)C[C@H]4OC(C)=O)/C3=O (some centres not stated)
95.3

---

tested on: P12-Ichikawa; assay: cell viability relative to DMSO control; higher = less cytotoxic; conditions: RPMI 5 mM glucose + 10% FBS; 48 h; 0.00702 µM
Property Measured: cell viability (%)
Express it in %; write the number only.

Would you kindly share the measured cell viability for COC1CCC(CC1)N(C(=O)C2CCC(C)CC2)C3=C(SC(=C3)\C4=C\CCCC4)C(O)=O (configuration not stated) ?
109

Request: CCc1cncnc1N1CCN(Cc2nc3cc(C(F)(F)F)ccc3[nH]2)CC1
95.2

Request: CNC1CCC(N(Cc2cccc(-c3ccncc3)c2)C(=O)c2sc3ccccc3c2Cl)CC1 (configuration not stated)
91.4

Request: CCCCn1c(=O)n(Cc2ccccc2F)c(=O)c2nc(Cc3ccc(NC(C)=O)cc3)[nH]c21
89.9

Request: COc1cc2nc(N(C)CCCNC(=O)C3CCCO3)nc(N)c2cc1OC (configuration not stated)
89.9

Request: Oc1ccc2c3c1O[C@H]1c4[nH]c5c(c4C[C@@]4(O)[C@@H](C2)N(CC2CC2)CC[C@]314)C[C@@]1(O)[C@H]2Cc3ccc(O)c4c3[C@@]1(CCN2CC1CC1)[C@H]5O4
118

Request: CCCc1nc(C(C)(C)O)c(C(=O)O)n1Cc1ccc(-c2ccccc2-c2nn[nH]n2)cc1
102

Request: COc1c(C)cnc(Cn2cnc3c(Cl)nc(N)nc32)c1C
125

Request: CC(C)OC(=O)OCOP(=O)(CO[C@H](C)Cn1cnc2c(N)ncnc21)OCOC(=O)OC(C)C.O=C(O)C=CC(=O)O
70.9

Request: CN[S+](=O)([O-])Cc1ccc2[nH]cc(CCN(C)C)c2c1
125

Request: CN(C)c1ccc(O)c2c1C[C@H]1C[C@H]3[C@H](N(C)C)C(O)=C(C(N)=O)C(=O)[C@@]3(O)C(O)=C1C2=O
101

Request: N=C(CCSCc1csc(N=C(N)N)n1)N[S+](N)(=O)[O-]
97.3

Request: COC[C@H]1OC(=O)C2=COC3=C2[C@@]1(C)\C4=C(C5CCC(=O)[C@@]5(C)C[C@H]4OC(C)=O)/C3=O (some centres not stated)
98.7

Request: NC1(Cc2ccc(Cl)cc2)CCN(c2ncnc3[nH]ccc23)CC1
101

Request: O=C([O-])C(O)Cc1ccc(O)c(O)c1 (configuration not stated)
107

Request: CC1=C(/C=C/C(C)=C/C=C/C(C)=C/C=C/C=C(C)/C=C/C=C(C)/C=C/C2=C(C)CCCC2(C)C)C(C)(C)CCC1
110

Request: CC\1=C(C(\N=C(/N1)C2=CC(=NC=C2)Cl)C3=C(F)C=C(Cl)C=C3)/C(=O)NC4=C(F)C=C5[NH]N=CC5=C4 (configuration not stated)
118

---

test system: P12-Ichikawa; assay: cell viability relative to DMSO control; higher = less cytotoxic; details: HPLM + 10% dialyzed FBS; 48 h; 0.0632 µM
What cell viability was measured for each of the following?
Provide a numeric answer, followed by its unit.

Would you kindly share the measured cell viability for CC1(C)CCC[C@]2(C)[C@H]3CC(=O)O[C@]3(C)CC[C@@H]12 ?
116%

Request: CC1(C)CC(=O)c2c(C(F)(F)F)nn(-c3ccc(C(N)=O)c(NC4CCC(O)CC4)c3)c2C1 (configuration not stated)
90%

Request: CC(C)OC(=O)OCOP(=O)(CO[C@H](C)Cn1cnc2c(N)ncnc21)OCOC(=O)OC(C)C.O=C(O)C=CC(=O)O
127%

Request: CN(C)c1ccc(O)c2c1C[C@H]1C[C@H]3[C@H](N(C)C)C(O)=C(C(N)=O)C(=O)[C@@]3(O)C(O)=C1C2=O
107%

Request: COC1=CC=CC=C1C2=CC=CC(=C2)C/3=C(O)/C4=CC(=C(Cl)C=C4NC3=O)C#N
107%

Request: CC1CCC(C(=O)N(c2cc(C#CC(C)(C)C)sc2C(=O)O)C2CCC(O)CC2)CC1 (configuration not stated)
95.1%

Request: COc1ccc(CC2NCCc3cc(OC)c(OC)cc32)cc1OC (configuration not stated)
95%

---

tested on: NOMO1; assay: cell viability relative to DMSO control; higher = less cytotoxic; conditions: RPMI 5 mM glucose + 10% FBS; 48 h; 1.71 µM
Label yes (1) when cell viability < 90%; otherwise no (0).

Could you please tell me whether cell viability recorded for CCCCn1c(=O)n(Cc2ccccc2F)c(=O)c2nc(Cc3ccc(NC(C)=O)cc3)[nH]c21 is less than 90%?
yes (1)

Request: CC(=O)N(C)c1cccc(-c2ccnc3c(C(=O)c4cccs4)cnn23)c1
no (0)

Request: CN[S+](=O)([O-])Cc1ccc2[nH]cc(CCN(C)C)c2c1
no (0)

Request: CCC1(C)CC(=O)NC1=O (centres undefined)
yes (1)

Request: CCCc1nc(C(C)(C)O)c(C(=O)O)n1Cc1ccc(-c2ccccc2-c2nn[nH]n2)cc1
no (0)

Request: CC(=O)Oc1ccccc1C(=O)O
no (0)

Request: Nc1ccccc1NC(=O)c1ccc(CNC(=O)OCc2cccnc2)cc1
yes (1)

Request: O=C(OC)[C@]12CC[C@@]3(C)[C@]4(C)CC[C@H]5[C@@](C)(C)C(=O)C(=C[C@]5(C)C4=CC(=O)[C@@H]3[C@@H]2C[C@](C)(C)CC1)C#N
yes (1)

Request: CC(C)(C)c1cc(NC(=O)Nc2ccc(-c3cn4c(n3)sc3cc(OCCN5CCOCC5)ccc34)cc2)no1
yes (1)

---

tested on: NOMO1; assay: cell viability relative to DMSO control; higher = less cytotoxic; details: HPLM + 10% dialyzed FBS; 48 h; 0.19 µM
Label Satisfied when cell viability < 30%; otherwise Not satisfied.

Could you please tell me whether cell viability recorded for C/C=C1\NC(=O)[C@H]2CSSCC/C=C\[C@H](CC(=O)N[C@H](C(C)C)C(=O)N2)OC(=O)[C@H](C(C)C)NC1=O is less than 30%?
Satisfied

Request: CC(=O)O[C@H]1C(=O)[C@]2(C)[C@@H](O)C[C@H]3OC[C@@]3(OC(C)=O)C2[C@H](OC(=O)C4=CC=CC=C4)[C@]5(O)C[C@H](OC(=O)[C@H](O)[C@@H](NC(=O)C6=CC=CC=C6)C7=CC=CC=C7)\C(=C1/C5(C)C)C (stereo not given in full)
Not satisfied

Request: NC(=O)c1cnc(N[C@@H]2CCCC[C@@H]2N)nc1Nc1cccc(-n2nccn2)c1
Not satisfied

Request: COC(=O)Nc1nc2cc(C(=O)c3cccs3)ccc2[nH]1
Not satisfied

Request: COc1ccc(CC2NCCc3cc(OC)c(OC)cc32)cc1OC (stereo not given)
Not satisfied

---

What cell viability was measured for each of the following?
system: NOMO1; experiment: cell viability relative to DMSO control; higher = less cytotoxic; details: HPLM + 10% dialyzed FBS; 48 h; 0.569 µM
Express it in %; write the number only.

Would you kindly share the measured cell viability for CC/1=C/C(=O)N(O)/C(=C1)C2CCCCC2 ?
140

Request: CC1=C(/C=C/C(C)=C/C=C/C(C)=C/C=C/C=C(C)/C=C/C=C(C)/C=C/C2=C(C)CCCC2(C)C)C(C)(C)CCC1
100

Request: CC1(C)O[C@@H]2C[C@H]3[C@@H]4CCC5=CC(=O)C=C[C@]5(C)[C@@]4(F)[C@@H](O)C[C@]3(C)[C@]2(C(=O)CO)O1
90.6

Request: CC(=O)Nc1ccc(OC[C@](C)(O)C(=O)Nc2ccc([N+](=O)[O-])c(C(F)(F)F)c2)cc1
88.4

Request: CC[C@H](CC#N)OC(=O)N[C@@H](C)c1cccc(NC(=O)Nc2ccc(-c3cnco3)c(OC)c2)c1
98.2

Request: COC1=NC(=NC(=C1N\C2=N\CCN2)Cl)C
89.5

Request: CN(CC#C)C/C1=C/C2=CC=CC=C2OC3=CC=CC=C13
85.2

Request: NC1(Cc2ccc(Cl)cc2)CCN(c2ncnc3[nH]ccc23)CC1
116

Request: COc1c(C)cnc(Cn2cnc3c(Cl)nc(N)nc32)c1C
80.8

Request: CC(C)[C@@H](N(CCCN)C(=O)C1=CC=C(C)C=C1)C/2=N/C3=CC(=CC=C3C(=O)N2CC4=CC=CC=C4)Cl
28

Request: O=C(OC)[C@]12CC[C@@]3(C)[C@]4(C)CC[C@H]5[C@@](C)(C)C(=O)C(=C[C@]5(C)C4=CC(=O)[C@@H]3[C@@H]2C[C@](C)(C)CC1)C#N
113

Request: C\C1=C\C(=O)OC2=C1C=CC(=C2)O
120

Request: Nc1ccccc1NC(=O)c1ccc(CNC(=O)OCc2cccnc2)cc1
81.1

Request: CC(C)(C)c1cc(NC(=O)Nc2ccc(-c3cn4c(n3)sc3cc(OCCN5CCOCC5)ccc34)cc2)no1
87.3

Request: O=C([O-])C(O)Cc1ccc(O)c(O)c1 (stereo not drawn)
99.4

Request: CC\1=C(C(\N=C(/N1)C2=CC(=NC=C2)Cl)C3=C(F)C=C(Cl)C=C3)/C(=O)NC4=C(F)C=C5[NH]N=CC5=C4 (stereo not drawn)
107

Request: COC1=C(N2CCNC(C)C2)C(=CC3=C1N(\C=C(C(O)=O)/C3=O)C4CC4)F (stereo not drawn)
103

Request: CNC(=O)c1ccc(-c2cnc3ncc(Cc4ccc5ncccc5c4)n3n2)cc1F
131
